Quick reference: solubility of the listed items.
- PROCEDURE DETAILS: Aqueous solubility
- Type: physicochemical
- CONDITION PARAMETERS: water
ENDPOINT LABEL: solubility

[[record]]
compound = "O=C(NCCCOc1ccc2nc3[nH]c(=O)[nH]c3cc2c1)N1CCOCC1"
reported = "< 10 mg/mL"

[[record]]
compound = "Cl.O=C(NCCCOc1ccc2nc3[nH]c(=O)[nH]c3cc2c1)NC1CCCCC1"
reported = "< 10 mg/mL"

[[record]]
compound = "O=C(NCCCOc1ccc2nc3[nH]c(=O)[nH]c3cc2c1)N1CCN(CC2CCCCO2)CC1 (stereo not shown)"
reported = "> 20 mg/mL"

[[record]]
compound = "Cl.Cl.O=C(NCCCOc1ccc2nc3[nH]c(=O)[nH]c3cc2c1)N1CCN(CC2CCCCC2)CC1"
reported = "> 20 mg/mL"

[[record]]
compound = "O=C(NCCCOc1ccc2nc3[nH]c(=O)[nH]c3cc2c1)N1CCN(Cc2ccccc2)CC1"
reported = "> 20 mg/mL"

[[record]]
compound = "Cl.Cl.O=C(NCCCOc1ccc2nc3[nH]c(=O)[nH]c3cc2c1)N1CCC(N2CCCCC2)CC1"
reported = "> 20 mg/mL"

[[record]]
compound = "CC(C)CN1CCN(C(=O)NCCCOc2ccc3nc4[nH]c(=O)[nH]c4cc3c2)CC1.Cl.Cl"
reported = "> 20 mg/mL"

